Documented Fractional motility across a set of molecules
# Test system: S. mansoni adult worms
# test.details: Motility assay on adult parasites (pixel displacement, relative to DMSO control)
# Assay type: cell-based, Schistosoma mansoni
# measurement.setup: secondary screen, 10 μM, D5, Female adult worms
Please give the numeric answer without any surrounding text.

The following molecules have reported results that may help.
[
  {
    "molecule": "NS(=O)(=O)C#Cc1ccccc1 [Pifithrin-μ]",
    "Fractional motility": -0.90
  },
  {
    "molecule": "O=C(/C=C/c1ccc2ccccc2n1)c1ccncc1 [PFK15]",
    "Fractional motility": -0.50
  }
]

Ask: Item under review: O=[N+]([O-])c1ccc2c(c1)S(=O)(=O)C=C2 [Stattic] . Reported Fractional motility?
Result: -0.90

Ask: Item under review: Cc1cc(Nc2ncc(Cl)c(Nc3ccccc3S(=O)(=O)C(C)C)n2)c(OC(C)C)cc1C1CCNCC1 [LDK378] . Reported Fractional motility?
Result: -0.63

Ask: Item under review: CCCCc1oc2ccccc2c1C(=O)c1cc(I)c(OCCN(CC)CC)c(I)c1 [Amiodarone] . Reported Fractional motility?
Result: -0.58

---

Documented Fractional motility across a set of compounds
# Test system: S. mansoni adult worms
# test.details: Motility assay on adult parasites (pixel displacement, relative to DMSO control)
# Format: cell-based, Schistosoma mansoni
# measurement.setup: secondary screen, 10 μM, D5, Female adult worms

The following compounds have reported results that may help.
[
  {
    "entry.smiles": "CNCc1ccc(C)c(NC(=O)c2ccc(Nc3nc(-c4ccccc4)c4ccccc4n3)cc2)c1",
    "Fractional motility": -0.64
  },
  {
    "entry.smiles": "C/C(=N\\NC(=S)N1CCC1)c1ccccn1",
    "Fractional motility": -0.84
  }
]

Now examine the next entry.
Ask: Item under review: `COc1cc(N2CCC(N)CC2)ccc1Nc1ncc(Cl)c(-c2c[nH]c3ccccc23)n1` . Reported Fractional motility?
Result: -0.93
